B1: CPEB3 Ribozyme (parent)
chain: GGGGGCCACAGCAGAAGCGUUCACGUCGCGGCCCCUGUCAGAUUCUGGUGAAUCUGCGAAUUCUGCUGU

variants of: B1; experiment: self-cleavage, relative activity (ratio to wild type); higher = more cleavage; co-transcriptional
recorded_metric: self-cleavage
When you answer, write just the number.

**Q:** Input GGGGGCCACAGCAGAAGCGUUCACGUCGCGGCCCCUGCCAGAUUCUGGUGAAUCUGAGAAUUCUGCUGU [U38C C57A] , output reported self-cleavage.
**A:** 0.3

**Q:** Input GGGGGCCACAGCAGAAGCGUUCACGUAGCGGCCCCUGUCAGAUUCUGGUGAAUCUGGGAAUUCUGCUGU [C27A C57G] , output reported self-cleavage.
**A:** 0.298

---
**Q:** Input GGGGGCCACACCAGAAGCGUUCACGUCGCGGCCCCUGUCAGAUUCUGGUGAAUCUGCGACUUCUGCUGU [G11C A60C] , output reported self-cleavage.
**A:** 0.299
